target.or.system: HDAC1 (Homo sapiens (Human))
Sequence (Q13547 whole entry): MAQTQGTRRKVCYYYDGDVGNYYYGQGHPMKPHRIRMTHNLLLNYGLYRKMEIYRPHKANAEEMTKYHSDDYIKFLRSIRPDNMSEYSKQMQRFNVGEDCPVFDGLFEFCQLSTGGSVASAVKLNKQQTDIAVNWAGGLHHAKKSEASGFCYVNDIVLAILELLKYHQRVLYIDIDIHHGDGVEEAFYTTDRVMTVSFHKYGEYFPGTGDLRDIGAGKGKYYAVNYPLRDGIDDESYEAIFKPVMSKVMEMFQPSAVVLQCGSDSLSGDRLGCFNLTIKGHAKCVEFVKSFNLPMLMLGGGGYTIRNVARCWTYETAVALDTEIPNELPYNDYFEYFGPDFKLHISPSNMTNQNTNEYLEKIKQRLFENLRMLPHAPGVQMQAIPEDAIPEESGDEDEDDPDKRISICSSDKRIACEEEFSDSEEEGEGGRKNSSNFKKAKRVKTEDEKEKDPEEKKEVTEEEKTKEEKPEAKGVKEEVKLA
test: Reporter displacement assay (HDAC1)
Type: binding
parameter: residence time (min)

Reference set (2 entries):
[
  {
    "molecule": "Nc1ccc(-c2ccc(F)cc2)cc1NC(=O)N1CC2CN(C(=O)OC3CC3)CC2C1 (stereo not shown) [Compound 158]",
    "parameter": "residence time",
    "units.symbol": "min",
    "experimental.result": 1220
  },
  {
    "molecule": "Nc1ccc(-c2ccncc2)cc1NC(=O)N1Cc2cncnc2C1 [Compound 100]",
    "parameter": "residence time",
    "units.symbol": "min",
    "experimental.result": 470
  }
]

1 = Nc1ccc(-c2ccncc2)cc1NC(=O)N1CCC2(CCN(CCF)C2)CC1 [Compound 144]
2 = Nc1ccc(-c2ccc(F)cc2)cc1NC(=O)N1CC2CN(C(=O)OC3CCC3)CC2C1 (stereo not shown) [Compound 159]
Req: Of 1 and 2 , whose reported residence time is the larger number? Record your answer as the label of the chosen record.
Resp: 2
(2: 1060 min, 1: 296 min)
